Target: T1, Tbx2 T-box DNA-binding domain, TBX2(94-281) (UniProt Q60707 94-281)
T1 sequence: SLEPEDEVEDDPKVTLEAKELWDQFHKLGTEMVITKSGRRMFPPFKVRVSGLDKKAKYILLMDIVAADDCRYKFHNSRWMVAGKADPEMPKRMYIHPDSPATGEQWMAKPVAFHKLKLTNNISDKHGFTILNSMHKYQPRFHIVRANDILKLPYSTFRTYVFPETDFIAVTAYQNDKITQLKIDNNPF
Assay: fluorescence anisotropy; 50 mM HEPES/NaOH pH 7.3, 200 mM NaCl, 25 C, 10 min, 3.33 nM dsDNA probe
Settings: protein: recombinant; tags: N-terminal His tag removed by 3C protease (pETM14, NcoI/XhoI); label: fluorescein (printed at the 3' end); blunt; self-complementary palindrome, 2 copies
pKd: −log10 of the molar value.
Parameter: pKd

Request: Item T-element (T-box) probe (dsDNA) DNA 1: AATTTCACACCTAGGTGTGAAATT DNA 2: AATTTCACACCTAGGTGTGAAATT : provide pKd
Response: ~6.22
